Test system: MDA-MB-231
Assay: NCI tumour cell line growth inhibition, 48 h
The source made the active and inactive calls. Cut-off read from the data, not from the text of the source: active = GI50 up to about 1.1 µM and inactive = higher.
metric: GI50

compound: CC1(C)C(/C=N\O)=[N+]([O-])C(C)(C)N1O
recorded.value: > 100 µM (inactive)
//
compound: O=C1CC(C(O)(C(F)(F)F)C(F)(F)Cl)CCC1C(O)(C(F)(F)F)C(F)(F)Cl (stereo unspecified)
recorded.value: > 10 µM (inactive)
//
compound: C#CCn1c(=O)c2cc(OC)c(OC)cc2n(CC#C)c1=O
recorded.value: > 10 µM (inactive)
//
compound: O=C(CCN1CCCCC1)c1csc2ccccc12
recorded.value: > 100 µM (inactive)
//
compound: CCOc1ccc(-n2nnc3c(N)nc(N)nc32)cc1
recorded.value: > 100 µM (inactive)
//
compound: CC1OC(c2ccc3c(c2O)C(=O)C2=C(C3=O)C3(O)C(=O)CC(C)(O)CC3(O)C=C2)CC(O)C1O (stereo unspecified)
recorded.value: 2.25 µM (inactive)
//
compound: C=C1C(=O)C[C@H]2C(=C)C(=O)O[C@@H]2C2C1CC[C@@]2(C)O (stereo partly specified)
recorded.value: 25.1 µM (inactive)
//
compound: CN(C)c1ccc(/C=C2\N=C(NN)NC2=O)cc1
recorded.value: 59.3 µM (inactive)
//
compound: COC(=O)C1(SC)C2CCC3C2CCC31 (stereo unspecified)
recorded.value: > 100 µM (inactive)
//
compound: Cc1cc(S(=O)(=O)Nc2nc(N)n(-c3ccccn3)n2)c(S)cc1Cl
recorded.value: > 100 µM (inactive)
//
compound: CC1CC(=O)Nc2nc3ccccc3n21 (stereo unspecified)
recorded.value: > 100 µM (inactive)

----------
Test system: NCI-H23
Assay: NCI tumour cell line growth inhibition, 48 h
Active and inactive are the calls of the source. Rule as the data show it: active = GI50 up to about 1.1 µM and inactive = higher.
metric: GI50

compound: Cc1ccc(-n2cc(-c3ccc(Cl)cc3)c(C#N)c2N)cc1
subject.of.test: NCI-H23
recorded.value: 15.7 µM (inactive)

compound: O=C(Nc1c(Cl)cc([N+](=O)[O-])cc1Cl)/C(=N\Nc1cccc(Cl)c1)c1c(O)c2ccccc2oc1=O
subject.of.test: NCI-H23
recorded.value: 62.7 µM (inactive)

compound: CCCNC(=O)CCC(C)[C@H]1CCC2C3C(C[C@H](OC(C)=O)[C@@]21C)[C@@]1(C)CCC2(C[C@H]1C[C@H]3OC(C)=O)OOC1(CCCCC1)OO2 (some centres undefined)
subject.of.test: NCI-H23
recorded.value: 1.12 µM (inactive)

compound: CC(C)(C)OC(=O)Nc1cc(-c2ccccc2)co1
subject.of.test: NCI-H23
recorded.value: > 100 µM (inactive)

----------
Test system: KM12
Assay: NCI tumour cell line growth inhibition, 48 h
Active and inactive are the calls of the source. Cut-off read from the data, not from the text of the source: active = GI50 up to about 1.1 µM and inactive = higher.
Classes used: active, inactive

molecule: CCN(CC)CCNc1ccc2ncn3c4c(OC)ccc(O)c4c(=O)c1c23
assigned.class: inactive
--
molecule: CC(=O)NC(CCC(=O)C=[N+]=[N-])C(=O)O (stereo unspecified)
assigned.class: inactive
--
molecule: Clc1cc(OC2C3CC4CC(C3)CC2C4)nc(Cl)n1 (stereo unspecified)
assigned.class: inactive
--
molecule: O=C(/C=C\c1ccc(Cl)cc1Cl)c1cccs1
assigned.class: inactive
--
molecule: CCc1cccc(C)c1NC(=O)CCc1nnc(SC)o1
assigned.class: inactive
--
molecule: COc1cc(C2c3cc4c(cc3[C@H](NS(C)(=O)=O)C3COC(=O)[C@H]23)OCO4)cc(OC)c1OC (stereo partly specified)
assigned.class: active

Taken from ChEMBL document CHEMBL1201862.
